# subject.of.test: DNA S4 […]
# protocol.text: FP binding assay, 18-nt DNA S4
pKd: −log10 of the molar value.
endpoint: pKd

Dear colleague, I am looking for the recorded pKd of the following compound: CCN1CCN(c2ccc3cc(-c4cn5cc(C)nc(C)c5n4)c(=O)oc3c2)C[C@@H]1C [SMN-C2] < 4.30

* * *

# subject.of.test: DNA Seq14 AGAAGGTAGGT
# protocol.text: FP binding assay, DNA Seq14
# reported.conditions: Seq 14 AGAAGGTAGGT; 0.5 μM SMN-C2
endpoint: Kd

Please report the recorded Kd for CCN1CCN(c2ccc3cc(-c4cn5cc(C)nc(C)c5n4)c(=O)oc3c2)C[C@@H]1C . > 100 µM

* * *

# subject.of.test: DNA Seq6 (UGAAGGAAGGU as deoxyribonucleotides)
# protocol.text: FP binding assay, DNA Seq6
# reported.conditions: Seq 6; 0.5 μM SMN-C2; range = 95% CI; read-out: DNA Kd
endpoint: Kd (µM)
One number for each entry, in µM.

Request the reported Kd associated with CCN1CCN(c2ccc3cc(-c4cn5cc(C)nc(C)c5n4)c(=O)oc3c2)C[C@@H]1C [SMN-C2] 3.1

* * *

# subject.of.test: DNA Seq6
# protocol.text: Competitive FP binding assay (displacement of SMN-C2 from DNA Seq6)
# reported.conditions: footnote c: FP assay for DNA Seq6; competition with SMN-C2 (0.5 μM) and DNA Seq6 (25 μM); read-out: Kd (apparent, competitive FP)
endpoint: Kd (µM)
One number for each entry, in µM.

Bench note: what Kd did Cc1cn2cc(-c3cc(=O)n4cc(N5CCN(C)CC5)ccc4n3)cc(F)c2n1 show? 5.8

* * *

# subject.of.test: RNA Seq13 UGAAGAAAGGU
# protocol.text: FP binding assay, RNA Seq13
# reported.conditions: Seq 13 UGAAGAAAGGU; 0.5 μM SMN-C2
pKd: −log10 of the molar value.
endpoint: pKd

Field: pKd (RNA Seq13 UGAAGAAAGGU). Entry: CCN1CCN(c2ccc3cc(-c4cn5cc(C)nc(C)c5n4)c(=O)oc3c2)C[C@@H]1C < 4.00

* * *

# subject.of.test: DNA S22 […]
# protocol.text: FP binding assay, 18-nt DNA S22
endpoint: Kd (µM)
One number for each entry, in µM.

Fill in: Kd of CCN1CCN(c2ccc3cc(-c4cn5cc(C)nc(C)c5n4)c(=O)oc3c2)C[C@@H]1C is ___ 44.7

* * *

# subject.of.test: DNA S26 d(TGAAGGAAGG)
# protocol.text: FP binding assay, 10-nt DNA S26
endpoint: pKd
Numbers only, as −log10 of the molar value.

Requested read-out: pKd. Entry: CCN1CCN(c2ccc3cc(-c4cn5cc(C)nc(C)c5n4)c(=O)oc3c2)C[C@@H]1C 5.21

* * *

# subject.of.test: DNA S27 d([…])
# protocol.text: FP binding assay, 10-nt DNA S27
endpoint: Kd (µM)
Numbers only, in µM.

Find the measured Kd: item CCN1CCN(c2ccc3cc(-c4cn5cc(C)nc(C)c5n4)c(=O)oc3c2)C[C@@H]1C , target or system DNA S27 d([…]). 11.6

* * *

# subject.of.test: DNA S15 […]
# protocol.text: FP binding assay, 18-nt DNA S15
endpoint: Kd (µM)
Numbers only, in µM.

Short answer please: Kd, DNA S15 […], entry CCN1CCN(c2ccc3cc(-c4cn5cc(C)nc(C)c5n4)c(=O)oc3c2)C[C@@H]1C 31.4

* * *

# subject.of.test: DNA Seq10 (UAAAGGAAGGU as deoxyribonucleotides)
# protocol.text: FP binding assay, DNA Seq10
# reported.conditions: Seq 10; 0.5 μM SMN-C2
endpoint: Kd

# query: Kd of entry CCN1CCN(c2ccc3cc(-c4cn5cc(C)nc(C)c5n4)c(=O)oc3c2)C[C@@H]1C > 100 µM

* * *

# subject.of.test: DNA Seq15 TGAAGGATGGT
# protocol.text: FP binding assay, DNA Seq15
# reported.conditions: Seq 15 TGAAGGATGGT; 0.5 μM SMN-C2
endpoint: pKd
Give bare numbers, as −log10 of the molar value.

Field request: pKd | item: CCN1CCN(c2ccc3cc(-c4cn5cc(C)nc(C)c5n4)c(=O)oc3c2)C[C@@H]1C 4.39

* * *

# subject.of.test: DNA Seq8 (UGAAGGAAGUU as deoxyribonucleotides)
# protocol.text: FP binding assay, DNA Seq8
# reported.conditions: Seq 8; 0.5 μM SMN-C2
endpoint: pKd
Give bare numbers, as −log10 of the molar value.

// query pKd value for entry CCN1CCN(c2ccc3cc(-c4cn5cc(C)nc(C)c5n4)c(=O)oc3c2)C[C@@H]1C 4.83

* * *

# subject.of.test: DNA Seq2 d(GAAGGAAGG)
# protocol.text: FP binding assay, 9-nt DNA Seq2
endpoint: pKd
Give bare numbers, as −log10 of the molar value.

Can you share its pKd? I mean this molecule: CCN1CCN(c2ccc3cc(-c4cn5cc(C)nc(C)c5n4)c(=O)oc3c2)C[C@@H]1C 4.46

* * *

# protocol.text: in vitro
# reported.conditions: human
Would you mind telling me the reported CC50 of each entry?
Numbers only, in µM.

These recorded examples may help you get a feel for the data.
# smiles.repr, recorded.result
data = [
    ("O=c1oc2cc(N3CCNCC3)ccc2cc1-c1cn2ccccc2n1", 5.4),
    ("O=c1oc2cc(N3CCNCC3)ccc2cc1-c1ccc2ccccc2c1", 7.9),
]

Return reported CC50 values for all items listed beneath this line.
1. O=c1oc2cc(N3CCNCC3)ccc2cc1-c1cn2cc(C(F)(F)F)ccc2n1
2. COc1ccc2nc(-c3cc4ccc(N5CCNCC5)cc4oc3=O)cn2c1

1. 14.1
2. 3

* * *

# subject.of.test: DNA S9 […]
# protocol.text: FP binding assay, 18-nt DNA S9
endpoint: Kd (µM)
One number for each entry, in µM.

Recall the recorded Kd for CCN1CCN(c2ccc3cc(-c4cn5cc(C)nc(C)c5n4)c(=O)oc3c2)C[C@@H]1C with DNA S9 […] and state it. 56.2

* * *

# subject.of.test: DNA S14 […]
# protocol.text: FP binding assay, 18-nt DNA S14
endpoint: Kd (µM)
Numbers only, in µM.

Bench note: what Kd did CCN1CCN(c2ccc3cc(-c4cn5cc(C)nc(C)c5n4)c(=O)oc3c2)C[C@@H]1C show? 19.5

* * *

# subject.of.test: DNA S25 […]
# protocol.text: FP binding assay, 18-nt DNA S25
endpoint: pKd
Give bare numbers, as −log10 of the molar value.

Lab request: please report pKd under test system DNA S25 […] for CCN1CCN(c2ccc3cc(-c4cn5cc(C)nc(C)c5n4)c(=O)oc3c2)C[C@@H]1C [SMN-C2] 4.32

* * *

# subject.of.test: COVID RNA (SARS-CoV-2 RNA SL5 per FIG. 8)
# protocol.text: FP binding, Kd for COVID RNA
# reported.conditions: Table 3
endpoint: pKd
Answers are plain numbers, as −log10 of the molar value.

# compound, subject.of.test, pKd
measured = [
    ("CCN1CCN(c2ccc3cc(-c4cn5cc(C)nc(C)c5n4)c(=O)oc3c2)C[C@@H]1C", "COVID RNA (SARS-CoV-2 RNA SL5 per FIG. 8)", 5.80),
    ("Cc1cn2cc(-c3cc4ccc(N5CCN[C@@H](C)C5)cc4oc3=O)nc2c(C)n1 [Compound C4, reference compound]", "COVID RNA (SARS-CoV-2 RNA SL5 per FIG. 8)", 5.89),
]

Please give pKd, item by item, for the list that follows.
1. Cc1cn2cc(-c3cc4ccc(N5CCN(CCNC(=O)OC(C)(C)C)[C@@H](C)C5)cc4oc3=O)nc2c(C)n1
2. O=c1oc2cc(N3CCNCC3)ccc2cc1-c1cn2ccc(F)cc2n1

[5.52, 6.68]

Fill in pKd for each of the 3 compounds listed.
1. O=c1oc2cc(N3CCNCC3)ccc2cc1-c1cn2ccccc2n1
2. O=c1oc2cc(N3CCNCC3)ccc2cc1-c1cn2ccc(Cl)cc2n1
3. Cc1cn2cc(-c3cc4ccc(N5CCN(CCOCCN=[N+]=[N-])[C@@H](C)C5)cc4oc3=O)nc2c(C)n1

1: 6.34; 2: 6.40; 3: 5.59

Please state, for each entry, its recorded pKd.
1. COc1cn2cc(-c3cc4ccc(N5CCNCC5)cc4oc3=O)nc2cn1
2. O=c1oc2cc(N3CCNCC3)ccc2cc1-c1cn2ccc(C(F)(F)F)cc2n1
3. O=c1oc2cc(N3CCNCC3)ccc2cc1-c1cn2cc(F)ccc2n1

1. 6.33
2. 5.85
3. 6.17

* * *

# subject.of.test: DNA S24 […]
# protocol.text: FP binding assay, 18-nt DNA S24
# Experimental: All synthetic DNA and RNA oligomers were purchased from Integrated DNA Technologies and reconstituted in nuclease-free water (Invitrogen #AM9932) at 1 mM. The concentration of the oligonucleotides at ˜0.1 mM was calibrated with the A260 value measured by a NanoDrop ND-1000 (Thermo, Waltham, MA, USA) and the predicted extinction coefficient (http://www.oligoevaluator.com) using Lamber-Beer's Law. […]
endpoint: Kd
Answer with the value and then the unit.

Looking for the measured Kd of CCN1CCN(c2ccc3cc(-c4cn5cc(C)nc(C)c5n4)c(=O)oc3c2)C[C@@H]1C [SMN-C2] , can you help? 36.8 µM
